Assay: Primary qHTS to identify inhibitors of SARS-CoV-2 cell entry (AID 1645846); further: nearly all actives have a fitted effect of over 45% in size
Conditions: SARS-CoV-2 pseudovirus cell entry assay, luminescence; series mostly up to 57.1 µM
Text: Assay Provider: Wei Zheng, Ph.D. National Center for Advancing Translational Sciences, National Institute of Health, Rockville, MD. SARS-CoV-2 spike protein, within the viral envelope, mediates viral attachment and infection of host cells. The SARS-CoV-2 spike protein specifically binds to the host receptor ACE2 (Angiotensin-converting enzyme 2). […] 11. […] Read luminescence signal (Viewlux plate reader, PerkinElmer). […]
Records with an inconclusive call do not appear. Active and inactive are the calls of the source. The call rests on the fitted dose curve.
Write down one outcome, taken from yes (1) = active, no (0) = inactive

{"Compound": "NS(=O)(=O)c1cc2c(cc1C(F)(F)F)NCNS2(=O)=O", "Cat": "no (0)"}
{"Compound": "Oc1ccccc1-c1ccccc1", "Cat": "no (0)"}
{"Compound": "CS(=O)(=O)OCCCCOS(C)(=O)=O", "Cat": "no (0)"}
{"Compound": "Nc1nc(=S)c2[nH]cnc2[nH]1", "Cat": "yes (1)"}
{"Compound": "CC(C)(C)NC(=O)[C@H]1CC[C@H]2[C@@H]3CC[C@H]4NC(=O)C=C[C@]4(C)[C@H]3CC[C@]12C", "Cat": "no (0)"}
{"Compound": "CCn1cc(C(=O)O)c(=O)c2cc(F)c(N3CCNCC3)cc21", "Cat": "no (0)"}

Each compound tested received a call. Report the one for Oc1ccc(C2CNCCc3c2cc(O)c(O)c3Cl)cc1 (configuration not stated) . no (0)

GET /call?item= `COCCCOc1cc(C[C@@H](C[C@H](N)[C@@H](O)C[C@H](C(=O)NCC(C)(C)C(N)=O)C(C)C)C(C)C)ccc1OC` returns the recorded outcome of this test. no (0)

Hi, do you know how `CC1=NS(=O)(=O)c2cc(Cl)ccc2N1` came out in this test? no (0)

// outcome(item) with item = `C=C(c1ccc(C(=O)O)cc1)c1cc2c(cc1C)C(C)(C)CCC2(C)C` no (0)

Field: outcome | Entry: Cn1c(=O)c2c(ncn2CC(O)CO)n(C)c1=O (configuration not stated) no (0)

Given `CC(=O)O[C@]1(C(C)=O)CC[C@H]2[C@@H]3C=C(C)C4=CC(=O)CC[C@]4(C)[C@H]3CC[C@@]21C` , state the outcome it received in this test. no (0)

---

Tested on: SC27B
Assay: qHTS profiling for inhibitors of Plasmodium falciparum proliferation (AID 504749); further: nearly all actives have a fitted effect of over 60% in size
Settings: P. falciparum in erythrocytes, SYBR Green DNA, 72 h; series mostly up to 28.7 µM
Inconclusive results are not listed. Calls of active or inactive are those of the source. The call rests on the fitted dose curve; in most records, active means well fitted inhibition curve with a large enough effect; inconclusive means small, poorly fitted or top-dose-only effect; inactive means flat fitted curve, though single readings scatter.
Choose the fitting class; nothing outside true (active), false (inactive) is accepted.

{"Compound": "OCCOc1ccccc1", "Cat": "false"}
{"Compound": "CC(C)(C)CC(C)(C)c1ccc(O)cc1", "Cat": "false"}
{"Compound": "O=C(NC(O)C(Cl)(Cl)Cl)NC(O)C(Cl)(Cl)Cl (stereo not drawn)", "Cat": "false"}
{"Compound": "C=C1CC[C@@]2(O)[C@H]3Cc4ccc(O)c5c4[C@@]2(CCN3CC2CC2)[C@H]1O5", "Cat": "false"}
{"Compound": "NCC(O)c1ccc(O)cc1 (stereo not drawn)", "Cat": "false"}
{"Compound": "CCC(COC(=O)c1cc(OC)c(OC)c(OC)c1)(c1ccccc1)N(C)C (stereo not drawn)", "Cat": "false"}
{"Compound": "CCCC(C)(COC(N)=O)COC(=O)NC(C)C (stereo not drawn)", "Cat": "false"}

Proceed to the following item.
Fill in: this test's call for `Fc1ccc(C(OCCN2CCN(CCCc3ccccc3)CC2)c2ccc(F)cc2)cc1` is ___ true

---

Test: qHTS Assay for Lipid Storage Modulators (AID 1519); further: on the % scale 0 is the no-effect control and ±100 the full control effect
Settings: Drosophila S3 cells, BODIPY lipid droplet/cell ratio, laser cytometry; at 57.5 µM (top of the series); cells loaded with oleic acid
Inconclusive results are not listed. Activity calls are given as the source filed them. Calls come from the whole dose curve.
Attribute measured: activity change, negative = inhibition

Solved cases below.
{"Molecule": "Cc1ncc(CNC(=O)N(CCCl)N=O)c(N)n1", "activity change, negative = inhibition": "4.94% (inactive)"}
{"Molecule": "CNCCC(Oc1ccc(C(F)(F)F)cc1)c1ccccc1 (configuration not stated)", "activity change, negative = inhibition": "1.75% (inactive)"}
{"Molecule": "CC(C)C(=O)Nc1ccc([N+](=O)[O-])c(C(F)(F)F)c1", "activity change, negative = inhibition": "9.96% (inactive)"}
{"Molecule": "CN(C)C(=O)C(CCN1CCC(O)(c2ccc(Cl)cc2)CC1)(c1ccccc1)c1ccccc1", "activity change, negative = inhibition": "-2.05% (inactive)"}
{"Molecule": "CCC(COC(=O)c1cc(OC)c(OC)c(OC)c1)(c1ccccc1)N(C)C (configuration not stated)", "activity change, negative = inhibition": "6.16% (inactive)"}

Would you mind giving activity change, negative = inhibition for every molecule in the list below?
1. CCCN1CCC[C@@H]2Cc3[nH]ncc3C[C@H]21
2. NCCc1cc(O)c(O)cc1O
3. NCC(O)c1ccc(O)cc1 (configuration not stated)
4. O=C1NCN(c2ccccc2)C12CCN(CC1COc3ccccc3O1)CC2 (configuration not stated)
5. CC(C)CC(N(C)C)C1(c2ccc(Cl)cc2)CCC1 (configuration not stated)
6. CNCCCN1c2ccccc2CCc2ccccc21
7. Cc1ccc(S(=O)(=O)N[C@@H](CCCCN)C(=O)CCl)cc1

-0.922% (inactive)
7.71% (inactive)
5.18% (inactive)
1.66% (inactive)
0.545% (inactive)
0.465% (inactive)
-0.107% (inactive)

---

Assay: Confirmatory qHTS for VERO E6 Cytotoxicity Assay: Counterscreen for SARS-CoV-2 CPE Assay (AID 1508605); further: nearly all actives have a fitted effect of over 60% in size; further: potency means the concentration at half of the fitted maximal effect
Settings: cell viability luminescence; series mostly up to 20 µM
Results filed as inconclusive are left out. Calls of active or inactive are those of the source. Calls come from the whole dose curve.
Attribute measured: Potency

Solved entries (count: 4):
{"Compound": "Cc1c(O)cccc1C(=O)N[C@@H](CSc1ccccc1)[C@H](O)CN1C[C@H]2CCCC[C@H]2C[C@H]1C(=O)NC(C)(C)C", "Test value": "12.6 µM (active)"}
{"Compound": "CC/C(=C(\\c1ccccc1)c1ccc(OCCN(C)C)cc1)c1ccccc1", "Test value": "10 µM (active)"}
{"Compound": "Cc1ccc(-c2cc(C(F)(F)F)nn2-c2ccc(S(N)(=O)=O)cc2)cc1", "Test value": "inactive"}
{"Compound": "CC1(CN2CCC(n3c(=O)[nH]c4ccccc43)CC2)OCc2ccccc2-n2cccc21 (stereo not given)", "Test value": "inactive"}

# input for lookup
The compound CC(CN1c2ccccc2Sc2ccccc21)N(C)C (stereo not given) showed Potency equal to inactive

---

System: HEK293
Experiment: Cytotoxic Profiling of Annotated Libraries Using Quantitative High-Throughput Screening (AID 1296008); further: nearly all actives have a fitted effect of over 60% in size
Conditions: Five cell lines viability, CellTiter-Glo ATP luminescence, 48-72 h
Inconclusive results are not listed. Active and inactive are the calls of the source. Calls follow the shape of the dose curve; as a rule, active = well fitted inhibition curve with a large enough effect; inconclusive = small, poorly fitted or top-dose-only effect; inactive = flat fitted curve, though single readings scatter.
Form entry, call: pick from 1 = active, -1 = inactive

{"Compound": "COc1ccc(C(CN(C)C)C2(O)CCCCC2)cc1 (configuration not stated)", "Cat": -1}
{"Compound": "CCCC(C)(COC(N)=O)COC(=O)NC(C)C (configuration not stated)", "Cat": -1}
{"Compound": "CC(C)NCC(O)c1ccccc1Cl (configuration not stated)", "Cat": -1}
{"Compound": "CCOC(=O)C1(c2ccccc2)CCN(CCC(C#N)(c2ccccc2)c2ccccc2)CC1", "Cat": 1}
{"Compound": "NP(N)(=O)NC(=O)c1ccc(F)cc1", "Cat": -1}

For this compound, state the assay outcome: CC1NCCOC1c1ccccc1 (configuration not stated) -1

Please share the test call associated with CC(C)=CC1C(C(=O)OCc2cccc(Oc3ccccc3)c2)C1(C)C (configuration not stated) . -1

---

Give activity, negative = inhibition for every item shown.
Experiment: qHTS profiling for inhibitors of Plasmodium falciparum proliferation (AID 504749); further: nearly all actives have a fitted effect of over 60% in size;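 on activity, negative = inhibition: 0% = DMSO vehicle and full inhibition = artemisinin control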
Conditions: P. falciparum in erythrocytes, SYBR Green DNA, 72 h; at 28.7 µM (top of the series); parasite line A
Results filed as inconclusive are left out.
One number for each entry, in %.

Some entries whose results are on file:
{"Compound": "CCC(C(N)=O)N1CCCC1=O (centres undefined)", "Unit abbrev": "%", "activity, negative = inhibition": 2.96}
{"Compound": "CC(C)CC(N(C)C)C1(c2ccc(Cl)cc2)CCC1 (centres undefined)", "Unit abbrev": "%", "activity, negative = inhibition": 6.97}
{"Compound": "C=C(C)[C@H]1Cc2c(ccc3c2O[C@@H]2COc4cc(OC)c(OC)cc4[C@@H]2C3=O)O1", "Unit abbrev": "%", "activity, negative = inhibition": -0.828}

Would you mind giving activity, negative = inhibition for every compound in the list below?
1. Oc1ccccc1-c1ccccc1
2. NN=C(N)N
3. CC(C)(N)Cc1ccc(Cl)cc1
4. CCCC(C)(COC(N)=O)COC(=O)NC(C)C (centres undefined)
5. c1ccc(C2CC2)c(OCC2=NCCN2)c1
6. CC(=O)Nc1cc([As](=O)(O)O)ccc1O
7. CCN(CC)CCN1C(=O)CN=C(c2ccccc2F)c2cc(Cl)ccc21

-2.25
-1.43
-1.24
8.09
6.76
-21
-1.62

For each listed entry, give its activity, negative = inhibition.
1. N#CC(C#N)=Cc1ccc(O)c(O)c1
2. CC1NCCOC1c1ccccc1 (centres undefined)
3. CC(C)(C)CC(C)(C)c1ccc(O)cc1
4. C#CCOC(C(=O)OCCN(C)C)(c1ccccc1)c1ccccc1

1: -14.1; 2: 8.85; 3: -18.1; 4: -0.224
